Tested on: cynomolgus CTGF
Sequence (as listed by the source): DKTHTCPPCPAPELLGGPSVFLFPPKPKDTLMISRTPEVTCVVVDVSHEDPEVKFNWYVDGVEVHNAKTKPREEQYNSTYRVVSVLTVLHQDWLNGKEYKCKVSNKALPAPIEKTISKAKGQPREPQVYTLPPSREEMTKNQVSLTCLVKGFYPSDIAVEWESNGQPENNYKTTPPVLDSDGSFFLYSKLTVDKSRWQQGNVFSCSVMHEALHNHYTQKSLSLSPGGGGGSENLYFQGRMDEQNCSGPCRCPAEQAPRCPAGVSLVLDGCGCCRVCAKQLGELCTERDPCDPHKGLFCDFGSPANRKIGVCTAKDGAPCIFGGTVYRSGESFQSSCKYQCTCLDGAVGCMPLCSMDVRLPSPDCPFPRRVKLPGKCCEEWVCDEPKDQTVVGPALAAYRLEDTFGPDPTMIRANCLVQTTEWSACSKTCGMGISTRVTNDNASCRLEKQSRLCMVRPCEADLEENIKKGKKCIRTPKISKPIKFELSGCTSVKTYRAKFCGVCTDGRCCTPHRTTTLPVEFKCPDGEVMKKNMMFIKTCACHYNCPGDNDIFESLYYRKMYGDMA
Assay: SPR binding kinetics and affinity, cynomolgus CTGF
Conditions: 25° C., 1:1 binding model
reported.metric: cynomolgus CTGF koff (s⁻¹)

{"columns": ["molecule", "reported.metric", "reported.measurement"],
 "data": [
  ["SEQ ID NO: 31: optimized CTGF-binding hNGAL lipocalin mutein (protein, lipocalin mutein) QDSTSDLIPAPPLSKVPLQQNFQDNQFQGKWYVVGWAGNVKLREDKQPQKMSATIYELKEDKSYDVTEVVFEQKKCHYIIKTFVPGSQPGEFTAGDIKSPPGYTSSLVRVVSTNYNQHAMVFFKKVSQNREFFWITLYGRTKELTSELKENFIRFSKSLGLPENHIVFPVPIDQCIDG", "cynomolgus CTGF koff", "7.31e-05"],
  ["SEQ ID NO: 36: optimized CTGF-binding hNGAL lipocalin mutein (protein, lipocalin mutein) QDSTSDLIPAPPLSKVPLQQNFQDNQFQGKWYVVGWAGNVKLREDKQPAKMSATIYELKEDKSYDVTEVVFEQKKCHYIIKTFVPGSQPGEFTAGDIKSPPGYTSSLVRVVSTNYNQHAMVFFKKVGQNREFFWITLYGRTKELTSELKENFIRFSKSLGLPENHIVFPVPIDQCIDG", "cynomolgus CTGF koff", "9.77e-05"],
  ["SEQ ID NO: 24: optimized CTGF-binding hNGAL lipocalin mutein (protein, lipocalin mutein) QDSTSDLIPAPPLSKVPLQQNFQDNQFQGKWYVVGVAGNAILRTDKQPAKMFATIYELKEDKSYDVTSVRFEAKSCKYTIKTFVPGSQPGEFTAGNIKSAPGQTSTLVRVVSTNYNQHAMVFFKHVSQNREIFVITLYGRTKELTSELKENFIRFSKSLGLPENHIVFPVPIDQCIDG", "cynomolgus CTGF koff", "2.63e-05"],
  ["SEQ ID NO: 15: optimized CTGF-binding hNGAL lipocalin mutein (protein, lipocalin mutein) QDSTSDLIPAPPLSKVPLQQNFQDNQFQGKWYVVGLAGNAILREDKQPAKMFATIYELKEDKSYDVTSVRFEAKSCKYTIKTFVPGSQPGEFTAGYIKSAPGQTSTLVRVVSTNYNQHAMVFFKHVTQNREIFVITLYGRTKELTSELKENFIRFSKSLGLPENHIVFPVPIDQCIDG", "cynomolgus CTGF koff", "7.57e-05"],
  ["SEQ ID NO: 34: optimized CTGF-binding hNGAL lipocalin mutein (protein, lipocalin mutein) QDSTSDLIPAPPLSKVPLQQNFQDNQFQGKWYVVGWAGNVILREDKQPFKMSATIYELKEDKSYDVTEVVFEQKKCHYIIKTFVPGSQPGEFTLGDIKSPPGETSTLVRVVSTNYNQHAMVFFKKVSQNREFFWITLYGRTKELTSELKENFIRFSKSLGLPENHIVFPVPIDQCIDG", "cynomolgus CTGF koff", 0.000238]
]}

Entry source: patent US20240228562A1
